Source listed as patent US11731943B2.

I'd be grateful if you could share measured Ki for these entries.
Tested on: isolated recombinant JAK1 kinase domain (Homo sapiens (Human))
Sequence (P23458 875-1153): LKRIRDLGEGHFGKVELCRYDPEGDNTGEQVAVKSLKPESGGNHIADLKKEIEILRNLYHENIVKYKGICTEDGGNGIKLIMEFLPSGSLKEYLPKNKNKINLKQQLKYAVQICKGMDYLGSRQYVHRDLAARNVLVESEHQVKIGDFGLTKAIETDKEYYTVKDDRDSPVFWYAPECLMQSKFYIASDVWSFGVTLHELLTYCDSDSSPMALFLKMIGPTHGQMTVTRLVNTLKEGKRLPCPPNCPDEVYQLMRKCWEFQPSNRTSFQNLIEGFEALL
Protocol description: JAK1 enzyme assay (Caliper LabChip, Ki)
Type: biochemical
Measurement parameters: read-out: JAK1 Ki
Form entry: value (nM) — number only.

Endpoint output: Ki of COC(=O)Nc1nn(C2(CC#N)CCC(Nc3ccc(-c4ccco4)cc3)CC2)cc1C(N)=O (stereo not shown) . Value?
0.77

Ok, now CC#Cc1ccc(CN2CCC(CC#N)(n3cc(C(N)=O)c(NC(=O)OC)n3)C(F)C2)cc1 (stereo not shown)
0.6

Similarly, N#CCC1(n2cc(C(N)=O)c(NC(=O)C3CC3)n2)CCN(Cc2cccc(C(F)(F)F)c2)CC1 ?
27.6

Now this one: N#CCC1(n2cc(C(N)=O)c(NC(=O)C3CC3)n2)CCN(Cc2ccc(C#N)cc2)CC1
4

// query: COC(=O)Nc1nn(C2(CC#N)CCN(Cc3ccc(-c4ccccc4)nc3F)CC2)cc1C(N)=O
1.2

And CC1(Oc2ccc(OC(F)F)cc2)CN(C2CCC(CC#N)(n3cc(C(N)=O)c(NC(=O)C4CC4)n3)CC2)C1 (stereo not shown) ?
0.86
